The measurements presented in this section are drawn from paper PMC3082038.

Experiment: Plasma pharmacokinetics of TSU-68 in phase I patients
Assay type: in vivo, human
Settings: human, plasma, oral, 200 mg/m^2 t.i.d., AUC Day 28, Pt 18, Colon ca., t.i.d. 200 mg/m^2 (1,200 mg/day)
Endpoint Label: AUC (ng·h/mL)

[[record]]
structure_smiles = "Cc1[nH]c(/C=C2\\C(=O)Nc3ccccc32)c(C)c1CCC(=O)O"
reported = 12500


* * *

Experiment: Plasma pharmacokinetics of TSU-68 in phase I patients
Format: in vivo, human
Conditions: human, plasma, oral, 400 mg/m2, C max, t.i.d. after meal, 84th dose, 400 mg/m^2, n=6, mean ± SD
Endpoint Label: Cmax (ng/mL)

[[record]]
molecule = "Cc1[nH]c(/C=C2\\C(=O)Nc3ccccc32)c(C)c1CCC(=O)O [TSU-68]"
display_unit = "ng/mL"
reported = 4780

